# measured_target: GLP-1 receptor (GLP-1R), primary cAMP assay cell line (human, UniProt P43220 24-463)
# assay_notes: cell-based or functional assay
Starred links: 1 amine or outer side, 2 acyl side, 3 side chain; linkers in the order of their positions; H or OH if unused. Non-standard residues stand in square brackets, D forms with d. Groups on a side chain read outwards from the residue. Primed or numbered codes have the meaning given here. No end group written: not given here. *: point of attachment. γGlu = O=C(O)[C@H](CCC(=O)[*:2])N[*:1]; αMeF = C[C@](N)(Cc1ccccc1)C(=O)O; αMeK = C[C@](N)(CCCCN)C(=O)O; Lauroyl = CCCCCCCCCCCC(=O)*; αMeS = C[C@](N)(CO)C(=O)O; PEG2′ = not defined here; Aib = CC(C)(N)C(=O)O
readout_label: cAMP Primary assay EC50, n1 (nM)

(A) H[Aib]EGS[αMeF]TSDV[αMeS]SYK([PEG2′-PEG2′-γGlu-Lauroyl])EGEAA[αMeK]K([PEG2′-PEG2′-γGlu-Lauroyl])FIAK([PEG2′-PEG2′-γGlu-Lauroyl])VVEGG-NH2 [SEQ ID NO: 470]
(B) H[Aib]EGS[αMeF]TSDVSK([PEG2′-PEG2′-γGlu-Lauroyl])YLEK([PEG2′-PEG2′-γGlu-Lauroyl])EAA[αMeK]EFIK([PEG2′-PEG2′-γGlu-Lauroyl])FVVEGG-NH2 [SEQ ID NO: 443]
Challenge: Which entry has a larger number for cAMP Primary assay EC50, n1, A or B ? Your answer should be the label of the entry you select.
Response given: B
